measured-target: Receptor-type tyrosine-protein phosphatase O (Homo sapiens)
Sequence (Q16827 whole entry): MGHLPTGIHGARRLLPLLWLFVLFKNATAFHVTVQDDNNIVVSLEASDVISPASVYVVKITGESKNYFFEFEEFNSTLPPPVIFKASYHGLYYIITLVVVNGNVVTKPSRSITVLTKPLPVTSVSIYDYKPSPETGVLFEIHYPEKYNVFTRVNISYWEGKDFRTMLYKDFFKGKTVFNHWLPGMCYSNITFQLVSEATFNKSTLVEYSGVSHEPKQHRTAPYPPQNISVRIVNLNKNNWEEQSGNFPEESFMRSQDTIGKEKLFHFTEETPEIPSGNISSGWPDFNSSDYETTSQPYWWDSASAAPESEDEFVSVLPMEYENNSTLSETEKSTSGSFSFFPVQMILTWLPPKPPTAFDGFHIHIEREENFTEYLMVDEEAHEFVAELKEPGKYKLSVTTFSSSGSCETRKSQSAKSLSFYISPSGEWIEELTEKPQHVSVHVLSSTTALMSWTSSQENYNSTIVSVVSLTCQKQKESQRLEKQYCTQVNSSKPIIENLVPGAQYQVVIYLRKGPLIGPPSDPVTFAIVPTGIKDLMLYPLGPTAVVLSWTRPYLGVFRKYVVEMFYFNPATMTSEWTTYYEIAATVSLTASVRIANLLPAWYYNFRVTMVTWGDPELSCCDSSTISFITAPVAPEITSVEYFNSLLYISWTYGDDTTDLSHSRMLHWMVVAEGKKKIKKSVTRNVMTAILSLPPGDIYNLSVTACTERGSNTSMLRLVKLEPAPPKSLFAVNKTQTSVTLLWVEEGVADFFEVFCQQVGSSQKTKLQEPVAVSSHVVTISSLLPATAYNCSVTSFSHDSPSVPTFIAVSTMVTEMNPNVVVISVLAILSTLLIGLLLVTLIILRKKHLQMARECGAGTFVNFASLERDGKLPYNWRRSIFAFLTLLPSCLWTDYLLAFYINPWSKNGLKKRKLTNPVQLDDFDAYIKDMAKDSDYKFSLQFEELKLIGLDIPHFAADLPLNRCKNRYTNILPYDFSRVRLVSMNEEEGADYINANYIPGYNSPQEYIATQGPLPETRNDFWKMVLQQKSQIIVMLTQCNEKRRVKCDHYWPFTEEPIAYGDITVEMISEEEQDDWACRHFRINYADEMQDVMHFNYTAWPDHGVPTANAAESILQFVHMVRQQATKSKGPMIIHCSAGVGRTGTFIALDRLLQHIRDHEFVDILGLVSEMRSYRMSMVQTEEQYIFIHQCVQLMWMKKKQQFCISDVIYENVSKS
quantity-measured: pIC50
# pIC50: negative log10 of molar concentration; output just the value

# get_value(readout= pIC50, system= Receptor-type tyrosine-protein phosphatase O (Homo sapiens)) for `O=C(O)c1ccc(-c2ccc(/C=C3\C(=O)c4cccc([N+](=O)[O-])c4C3=O)o2)c(Cl)c1`
4.84

----------
measured-target: UniProt:Q9Y2R2
Sequence (Q9Y2R2 whole entry): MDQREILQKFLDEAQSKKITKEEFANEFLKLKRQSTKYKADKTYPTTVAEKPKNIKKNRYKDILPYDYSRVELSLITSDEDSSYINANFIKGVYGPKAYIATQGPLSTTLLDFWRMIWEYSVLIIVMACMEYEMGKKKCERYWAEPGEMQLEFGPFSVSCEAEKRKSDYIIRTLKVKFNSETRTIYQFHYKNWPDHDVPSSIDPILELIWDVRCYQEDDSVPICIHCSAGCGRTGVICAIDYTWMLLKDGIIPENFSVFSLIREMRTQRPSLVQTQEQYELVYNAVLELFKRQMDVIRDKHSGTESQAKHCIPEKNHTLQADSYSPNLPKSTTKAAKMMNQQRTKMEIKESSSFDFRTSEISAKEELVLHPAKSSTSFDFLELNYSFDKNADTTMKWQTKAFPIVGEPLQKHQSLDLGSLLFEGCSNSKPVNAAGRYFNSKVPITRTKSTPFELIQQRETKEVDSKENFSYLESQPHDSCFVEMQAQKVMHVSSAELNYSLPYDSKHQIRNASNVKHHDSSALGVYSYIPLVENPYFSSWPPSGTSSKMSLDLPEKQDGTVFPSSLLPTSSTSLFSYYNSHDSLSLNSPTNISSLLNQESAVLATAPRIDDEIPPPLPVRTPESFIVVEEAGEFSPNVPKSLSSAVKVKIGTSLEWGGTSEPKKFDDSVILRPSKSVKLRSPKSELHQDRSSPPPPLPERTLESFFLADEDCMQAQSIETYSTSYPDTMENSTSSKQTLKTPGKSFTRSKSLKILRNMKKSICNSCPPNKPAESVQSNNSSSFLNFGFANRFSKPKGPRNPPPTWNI
quantity-measured: IC50 (µM)
Give the quantity in µM, number only.

Which IC50 reading was recorded for the molecule `O=C(O)c1ccc(-c2ccc(/C=C3\C(=O)c4cccc([N+](=O)[O-])c4C3=O)o2)c(Cl)c1` ?
11.2
